Data provenance: PubChem BioAssay (NCATS)

Assay: qHTS profiling for inhibitors of Plasmodium falciparum proliferation (AID 504749); note: nearly all actives have a fitted effect of over 60% in size;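 for activity, negative = inhibition: 0% = DMSO vehicle and full inhibition = artemisinin control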
Conditions: P. falciparum in erythrocytes, SYBR Green DNA, 72 h; at 28.7 µM (top of the series); parasite line B
Method: NIH National Institute of Allergy and Infectious Diseases [NIAID] NIH Chemical Genomics Center [NCGC] […] Because mature erythrocytes lack DNA, only Plasmodium-derived DNA is detected. NCGC Assay Protocol Summary: The SYBR Green viability assay was adapted from a method described previously (Plouffe et al., 2008). […] The following morning, fluorescence intensity at 485(14) nm excitation and 535(25) nm emission wavelengths was measured on an EnVision (Perkin Elmer) plate reader. […]
Results filed as inconclusive are left out.
Measure Name: activity, negative = inhibition (%)
The figure you give is taken to be in %; do not add the unit.

>>> measured_value("c1ccc(C2(c3ccccc3)CC2C2=NCCN2)cc1 (stereo not given)")
-12.8
>>> measured_value("Cc1cc(O)ccc1Cl")
-0.29
>>> measured_value("COC(=O)[C@@H](N)CCCN=C(N)N[N+](=O)[O-]")
10.5
>>> measured_value("CCCCc1ccc(C(=O)O)nc1")
1.46
>>> measured_value("C1CCC(NC2CCCCC2)CC1")
9.08
>>> measured_value("CCCN1CCC[C@H](c2cccc(O)c2)C1")
-0.779
>>> measured_value("CC(C)NC(C)Cc1ccc(I)cc1 (stereo not given)")
-12.4
>>> measured_value("CC[N+]1(CCOC(=O)C(O)(c2ccccc2)c2ccccc2)CCCCC1")
-20.1

# input Would you kindly share the measured activity, negative = inhibition for CN1C2CCC1CC(OC(=O)c1cc(Cl)cc(Cl)c1)C2 (stereo not given) ?
# output 5.18

# input Would you kindly share the measured activity, negative = inhibition for C=CCN1CC[C@]23CCCCC2[C@H]1Cc1ccc(O)cc13 (stereo not given in full) ?
# output 4.44

====

system: CP191; test: qHTS profiling for inhibitors of Plasmodium falciparum proliferation (AID 504749); note: nearly all actives have a fitted effect of over 60% in size; conditions: P. falciparum in erythrocytes, SYBR Green DNA, 72 h; series mostly up to 28.7 µM
Inconclusive results are not listed. Active and inactive are the calls of the source. The call rests on the fitted dose curve; in most records, active means well fitted inhibition curve with a large enough effect; inconclusive means small, poorly fitted or top-dose-only effect; inactive means flat fitted curve, though single readings scatter.
Please answer using one outcome listed in T for active, F for inactive

>>> assigned_class("NC1=NC(=O)N2CC12 (centres undefined)")
"F"

# input So what was the verdict on `O=C(O)COc1ccccc1` in this test?
# output F

# input So what was the verdict on `Cc1ccc(Cl)c(O)c1` in this test?
# output F

# input So what was the verdict on `O=C(O)C(Cl)Cl` in this test?
# output F

# input So what was the verdict on CN1C2CCC1CC(OC(=O)c1cc(Cl)cc(Cl)c1)C2 (centres undefined) in this test?
# output F

# input So what was the verdict on CCCCCCCCCC(CC)c1ccc(S(=O)(=O)O)cc1 (centres undefined) in this test?
# output F

# input So what was the verdict on `CN[C@@H]1C[C@@H](c2ccc(Cl)c(Cl)c2)c2ccccc21` in this test?
# output F

# input So what was the verdict on `COC(=O)[C@@H](N)CCCN=C(N)N[N+](=O)[O-]` in this test?
# output F

====

test: Immunotoxin (SS1P) sensitization/mitigation study. Vehicle arm (DMEM) (AID 1159513); conditions: cell viability with vehicle (DMEM); series mostly up to 46.1 µM; note: potency is the fitted concentration of half-maximal effect
The source made the active and inactive calls. The rule behind the calls is not given here.
Measure Name: Potency

>>> measured_value("OCCn1cc(-c2ccc3c(c2)CCC3=NO)c(-c2ccncc2)n1")
"inactive"
>>> measured_value("CCc1cc(Nc2nccc(-c3c(-c4ccc(OC)c(C(=O)Nc5c(F)cccc5F)c4)nc4ccccn34)n2)c(OC)cc1N1CCC(N2CCN(S(C)(=O)=O)CC2)CC1")
"inactive"
>>> measured_value("C=CCc1cccc(/C=N/NC(=O)CN2CCN(Cc3ccccc3)CC2)c1O")
"13.2 µM (active)"
>>> measured_value("CCCCCCCCCCCCCCCCCCOP(=O)([O-])OC1CC[N+](C)(C)CC1")
"inactive"
>>> measured_value("c1cc(-c2cnn3cc(-c4ccc(OCCN5CCCCC5)cc4)cnc23)ccn1")
"16.6 µM (active)"

# input Would you kindly share the measured Potency for `CC(C)c1ccccc1Cc1cc(C(=O)Nc2ccc(S(=O)(=O)c3ccccc3C(C)(C)C)cc2)c(O)c(O)c1O` ?
# output 3.72 µM (active)

# input Would you kindly share the measured Potency for `Cc1ccnc(NS(=O)(=O)c2ccc(NC(=O)Nc3ccc(S(=O)(=O)Nc4nccc(C)n4)cc3)cc2)n1` ?
# output 18.7 µM (active)

# input Would you kindly share the measured Potency for `C[C@@]12O[C@@H](C[C@]1(O)CO)n1c3ccccc3c3c4c(c5c6ccccc6n2c5c31)CNC4=O` ?
# output 0.0296 µM (active)

# input Would you kindly share the measured Potency for `CN1CC[C@@H](c2c(O)cc(O)c3c(=O)cc(-c4ccccc4Cl)oc23)[C@@H](O)C1` ?
# output 0.0469 µM (active)

# input Would you kindly share the measured Potency for `COC(=O)C1=C(C)NC(C)=C(C(=O)OCCCN2CCC(c3ccccc3)(c3ccccc3)CC2)[C@H]1c1cccc([N+](=O)[O-])c1` ?
# output 26.4 µM (active)

# input Would you kindly share the measured Potency for `O=c1[nH]nc(Sc2ncc([N+](=O)[O-])s2)n1-c1ccc2c(c1)OCCO2` ?
# output 20.9 µM (active)

# input Would you kindly share the measured Potency for `Cc1ccc(C(=O)Nc2cccc(C(F)(F)F)c2)cc1-c1ccc2nc(NCCN3CCOCC3)ncc2c1` ?
# output 13.2 µM (active)

# input Would you kindly share the measured Potency for `COc1cc2c(cc1OC)[C@@H]1C(=O)c3ccc4c(c3O[C@@H]1CO2)C=CC(C)(C)O4` ?
# output 4.18 µM (active)

# input Would you kindly share the measured Potency for `COc1cc2c(cc1OC)CN(CCc1ccc(NC(=O)c3cccc4c(=O)c5cccc(OC)c5[nH]c34)cc1)CC2` ?
# output inactive

# input Would you kindly share the measured Potency for `CN1CCN(c2ccc3nc(-c4c(N)c5c(F)cccc5[nH]c4=O)[nH]c3c2)CC1` ?
# output 18.7 µM (active)

# input Would you kindly share the measured Potency for C=C1C(=CC=C2CCCC3(C)[C@@H]([C@H](C)C=CC=CC(O)(CC)CC)CC[C@@H]23)C[C@@H](O)C[C@@H]1O (some centres not stated) ?
# output 20.9 µM (active)

# input Would you kindly share the measured Potency for `Cn1cc(-c2ccc3nnc(C(F)(F)c4ccc5ncccc5c4)n3n2)cn1` ?
# output inactive

====

assay: qHTS of Trypanosoma Brucei Inhibitors: LOPAC Validation (AID 624147); conditions: purified enzyme assay, luminescence, 45 min; series mostly up to 57.5 µM; note: 0% is about no effect
Records with an inconclusive call do not appear. Activity calls are given as the source filed them. Calls follow the shape of the dose curve; as a rule, active = well fitted inhibition curve with a large enough effect; inconclusive = small, poorly fitted or top-dose-only effect; inactive = flat fitted curve, though single readings scatter.
Measure Name: outcome

>>> measured_value("NCCc1c[nH]c2ccc(O)cc12")
"inactive"
>>> measured_value("NC(=O)CN1CC(O)CC1=O (centres undefined)")
"inactive"
>>> measured_value("Cc1nccc2c1[nH]c1ccccc12")
"inactive"
>>> measured_value("CS(=N)(=O)CC[C@H](N)C(=O)O (some centres undefined)")
"inactive"
>>> measured_value("O=C(Cc1ccc(Cl)c(Cl)c1)N1CCCCC1CN1CCCC1 (centres undefined)")
"inactive"

# input Would you kindly share the measured outcome for NC1CC1c1ccccc1 (centres undefined) ?
# output inactive

# input Would you kindly share the measured outcome for `C#CCOC(=O)C1=CCCN(C)C1` ?
# output inactive

# input Would you kindly share the measured outcome for `Clc1cnc(Oc2ccc(Oc3ncc(Cl)cc3Cl)cc2)c(Cl)c1` ?
# output inactive

# input Would you kindly share the measured outcome for `CC(=O)NCCc1c[nH]c2ccccc12` ?
# output inactive

# input Would you kindly share the measured outcome for CC(Cc1ccc(O)cc1)NCC(O)c1cc(O)cc(O)c1 (centres undefined) ?
# output inactive

# input Would you kindly share the measured outcome for `CC1=NN=C(c2ccc(N)cc2)c2cc3c(cc2C1)OCO3` ?
# output inactive

# input Would you kindly share the measured outcome for `CN[C@@H]1C[C@@H](c2ccc(Cl)c(Cl)c2)c2ccccc21` ?
# output inactive

# input Would you kindly share the measured outcome for `O=C(O)Cc1cnc[nH]1` ?
# output inactive

# input Would you kindly share the measured outcome for NC(CP(=O)(O)O)C(=O)O (centres undefined) ?
# output inactive

====

tested on: CP329; test: qHTS profiling for inhibitors of Plasmodium falciparum proliferation (AID 504749); note: nearly all actives have a fitted effect of over 60% in size; conditions: P. falciparum in erythrocytes, SYBR Green DNA, 72 h; series mostly up to 28.7 µM
Records with an inconclusive call do not appear. Calls of active or inactive are those of the source. The call rests on the fitted dose curve; in most records, active means well fitted inhibition curve with a large enough effect; inconclusive means small, poorly fitted or top-dose-only effect; inactive means flat fitted curve, though single readings scatter.
Please answer using one outcome listed in 1 = active, 0 = inactive

# input So what was the verdict on `CCCCCCCCCCCCCCCC[N+](C)(C)C` in this test?
# output 1

# input So what was the verdict on C#CC1(O)CCC2C3CCC4=CC(=O)CCC4(C)C3CCC21C (stereo not drawn) in this test?
# output 0

# input So what was the verdict on CCCCCCCCCC(CC)c1ccc(S(=O)(=O)O)cc1 (stereo not drawn) in this test?
# output 0

# input So what was the verdict on C=CCN1CC[C@]23CCCCC2[C@H]1Cc1ccc(O)cc13 (stereo partly drawn) in this test?
# output 0

# input So what was the verdict on `CCCN1CCC[C@H](c2cccc(O)c2)C1` in this test?
# output 0
